assay-protocol: method code SF, from Hansch, C. & Leo, A. (1987). Log P database [Dataset]. Pomona College Medicinal Chemistry Project.
setup-conditions: pH 3.0
Classify by measured logD: label 1 if it is equal to or exceeds 0.2, label 0 if it is smaller.

>  <compound>
CC(=O)OCC1=C(C(=O)O)N2C(=O)C(NC(=O)COc3ccccc3)C2SC1 (stereo not given)

>  <assigned-label>
label 1

$$$$
>  <compound>
Cn1nnnc1SCC1=C(C(=O)O)N2C(=O)C(NC(=O)Cc3cccs3)C2SC1 (stereo not given)

>  <assigned-label>
label 0

$$$$
>  <compound>
CC1=C(C(=O)O)N2C(=O)[C@@H](NC(=O)Cc3cccs3)[C@H]2SC1

>  <assigned-label>
label 1

$$$$
>  <compound>
CC(=O)OCC1=C(C(=O)O)N2C(=O)C(NC(=O)C(O)c3ccccc3)C2SC1 (stereo not given)

>  <assigned-label>
label 0

$$$$
>  <compound>
CSCC1=C(C(=O)O)N2C(=O)C(NC(=O)Cc3cccs3)C2SC1 (stereo not given)

>  <assigned-label>
label 1

$$$$

INPUT: Quick check, logD >= 0.2? CC(=O)OCC1=C(C(=O)O)N2C(=O)C(NC(=O)CSc3cc(Cl)ccc3Cl)C2SC1 (stereo not given)
OUTPUT: label 1

INPUT: Same again, this time with CC(=O)OCC1=C(C(=O)O)N2C(=O)[C@@H](NC(=O)CBr)[C@H]2SC1
OUTPUT: label 0

INPUT: How about this compound: Cn1c(SCC2=C(C(=O)O)N3C(=O)C(NC(=O)Cc4cccs4)C3SC2)nnc(O)c1=O (stereo not given)
OUTPUT: label 0

INPUT: Now consider Cc1nnc(SCC2=C(C(=O)O)N3C(=O)C(NC(=O)Cc4cccs4)C3SC2)s1 (stereo not given) and answer again.
OUTPUT: label 1

---

assay-protocol: method code SF, from Hansch, C. & Leo, A. (1987). Log P database [Dataset]. Pomona College Medicinal Chemistry Project.
outcome-measure: logP
// return a plain number; no unit text

>  <molecule>
O=c1[nH]c(=O)n([C@H]2C[C@H](O)[C@@H](CO)O2)cc1Br

>  <test-value>
-0.29

$$$$
>  <molecule>
CC(=O)N[C@@H]1CC(=O)N(c2ccccc2)C1=O

>  <test-value>
-0.33

$$$$

INPUT: Tell me the measured logP of O=C(NC(CO)C(O)c1ccc(NC(=O)C2CC2)cc1)C(Cl)Cl (stereo not drawn) , please.
OUTPUT: 0.75

INPUT: Entry CC(=O)Oc1ccccc1C#N please
OUTPUT: 1.33

INPUT: Follow-up entry: CCN(CC)c1ccc(/N=N/c2ccc(Br)cn2)c(O)c1
OUTPUT: 4.23

INPUT: Now the molecule NC(=O)CF
OUTPUT: -1.05

INPUT: Input Cn1nnc2ccccc2c1=O
OUTPUT: 0.84

INPUT: Would you mind doing COc1cc(C=O)ccc1OCCOC(=O)c1ccc(Cl)cc1 as well?
OUTPUT: 3.71

INPUT: And Nc1nc2ccccc2c(=O)[nH]1 ?
OUTPUT: 0.6

INPUT: Another molecule to check: CC(=O)Nc1ccc(S(C)(=O)=O)cc1
OUTPUT: 0.58

INPUT: Next molecule up: CCOP(=O)(OCC)Oc1ccc(SC)c(C)c1
OUTPUT: 3.28

INPUT: Request: CN(C(=O)COc1ccccc1)c1ccccc1
OUTPUT: 2.25

INPUT: How about COc1ccc2[nH]c(CCc3nc4cc(OC)ccc4[nH]3)nc2c1 ?
OUTPUT: 1.14
